- test.description: Leishmania major promastigote growth inhibition, primary screen (AID 1063);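 also: promastigotes grown with compound for 44 hours at 28 °C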
- reported.conditions: Leishmania major promastigotes, resazurin fluorescence viability; at 10 µM
Screen size: about 200,000 compounds; about 18,000 (9%) were called active. Rule as the data show it: active = inhibition above about 50%; inactive = the rest. The sample holds actives, similar compounds and a random draw of the others, so the mix is not that of the screen.
Hi! Could you answer with just one of these? 1 (active), 0 (inactive)

As a guide, the following entries are already answered.
Cc1cc(CNCc2c(C(=O)N(C)Cc3ccccc3)nc3ccccn23)nn1C    0
CCc1nc2ccccc2c(C(=O)OC2CCCCC2=O)c1C (configuration not stated)    0
C=CCn1cc(-c2cccc(C(F)(F)F)c2)cc(C#N)c1=O    0
CCOC(=O)C(CC)/C(C)=N\NC(=O)c1cccc(C)c1 (configuration not stated)    0
CCOc1ccc(NS(=O)(=O)c2ccc(C)c(C(N)=O)c2)cc1    0

Just curious, what result did Cc1ccccc1C(CC(=O)c1cccs1)C(C#N)C#N (configuration not stated) get here?
1

Just curious, what result did Cn1ccc(=NC=C(C#N)C#N)c2ccccc21 get here?
0

Just curious, what result did CC1=CC=CC2=N/C(=N\S(=O)(=O)c3ccc(F)cc3F)c3ccccc3CN12 get here?
0

----------
The entries below come with measured inhibition values attached.
- test.description: Leishmania major promastigote growth inhibition, primary screen (AID 1063);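 also: promastigotes grown with compound for 44 hours at 28 °C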
- reported.conditions: Leishmania major promastigotes, resazurin fluorescence viability; at 10 µM; stronger effect = higher value
In all, about 200,000 compounds went through this assay and about 18,000 (9%) were called active. The entries come from a sample that favours actives as a whole.
Field: numeric (%). Do not append units.

In the examples that follow, each entry is paired with its recorded inhibition.
COc1ccccc1OCC(=O)OCn1c(SC)nnc(C)c1=O    58
COc1ccc(C(=O)CN(C(=O)c2ccc(Cl)cc2)N2C(=O)c3ccccc3C2=O)cc1    -4.51

Briefly, inhibition measured for Cn1c(=O)c(=O)n(C)c2cc(S(=O)(=O)NCCc3ccccc3)ccc21 : 18.8

Briefly, inhibition measured for Cc1[nH]c2ccccc2c1-c1ccc(Cl)nn1 : -2.46

Briefly, inhibition measured for Cn1cc(CCC(=O)N2CCCC(C(=O)c3ccc(C(C)(C)C)cc3)C2)cn1 (stereo unspecified) : -0.59

Briefly, inhibition measured for CCN1CCC2(CCN(Cc3cn[nH]c3-c3ccc(OC)c(F)c3)C2)C1 (stereo unspecified) : 1.79

Briefly, inhibition measured for Cc1cc(NC(=O)CSc2nnc(Nc3ccccc3F)s2)no1 : 0.51

Briefly, inhibition measured for Cc1nnc(SCC(=O)N2CCc3ccccc3C2)s1 : -1.97

Briefly, inhibition measured for CCN1CCN(C(=O)c2ccccc2N(C)S(=O)(=O)c2ccc(C)cc2)CC1 : -0.79

Briefly, inhibition measured for O=C(CN1CCCC1)N1CCN(c2ccccc2)CC1 : -4.42

Briefly, inhibition measured for O=C(O)CSCC(=O)Nc1ccc(C(F)(F)F)cc1 : -3.47

Briefly, inhibition measured for Cc1ccccc1CSc1nnc(-c2ccccc2)c(=O)[nH]1 : -8.07

Briefly, inhibition measured for COc1ccccc1CC(=O)Nc1ccc(F)cc1F : -6.42

Briefly, inhibition measured for FC(F)Oc1ccc(NC(=S)NCc2ccco2)cc1Cl : 12.2

Briefly, inhibition measured for CCOC(=O)C1CCN(C(=O)c2ccccc2N(C)S(=O)(=O)c2ccccc2)CC1 : 53.4

Briefly, inhibition measured for Cc1nc(N2CCOCC2)sc1C(=O)NN : 7.46
